Data provenance is paper PMC10397247.

# TGT: T1, 4H4001-AA
# T1 chain: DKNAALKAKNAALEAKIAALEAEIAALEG
# ASSAY DETAILS: two-hybrid library CCmax;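 also: natural log of median RNA to DNA barcode read ratio; higher means stronger binding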
# RUN PARAMETERS: mean of both orientations
OBSERVED PROPERTY: interaction score

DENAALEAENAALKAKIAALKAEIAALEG [4H1257-AA]: -0.973

(a) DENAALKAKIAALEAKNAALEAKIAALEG [4H1845-AA]
(b) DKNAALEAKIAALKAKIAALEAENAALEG [4H3427-AA]
(c) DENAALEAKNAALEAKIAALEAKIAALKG [4H1446-AA]
(d) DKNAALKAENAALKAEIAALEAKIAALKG [4H3782-AA]
Query: Rank order required: interaction score, descending. Reply with the labels, ordered as the question asks.
Response: c, d, b, a
(c: 2.23, d: -0.482, b: -1.06, a: -1.9)
